Where these numbers come from: ChEMBL document CHEMBL4513216

Assay: Toxicity liver stage against HepG2, at 10uM
Format: cell-based
Design: test concentration 10 uM, cell line HepG2-A16-CD81EGFP
Settings: human, HepG2-A16-CD81EGFP cells; read-out: INHIBITION
Property Measured: cytotoxicity at 10 µM (%)
Just the number please, in %, no unit attached.

Solved entries:
Molecule	Units Symbol	cytotoxicity at 10 µM
Cc1cnc(N2CCCC3(COCCN(c4nccs4)C3)C2)nc1 (stereo not drawn)	%	-112
Cc1noc(CNC(=O)N2CCN(c3nc(C)c(C)s3)CC2)n1	%	-19.5
Cc1cnc(N2CCOC3(COCCN(c4nccs4)C3)C2)nc1 (stereo not drawn)	%	-114

Note to self: cytotoxicity at 10 µM recorded for Cn1ncc2c(NC3CCSC3)nc(-c3ccncc3)nc21 (stereo not drawn) was 21.6

The measured cytotoxicity at 10 µM associated with CC(C)NC(=O)C1(Cc2ccccc2-c2cncnc2)CCCNC1 (stereo not drawn) reads 3.67

Recorded cytotoxicity at 10 µM (molecule CCCc1ccc(CN2CCN(C(=O)N(C)C)[C@@H]3CS(=O)(=O)C[C@@H]32)o1 ): 8.69

// sample O=C(c1cc(-c2cn[nH]c2)nc2cc(F)ccc12)N1CCS(=O)(=O)CC1 , its cytotoxicity at 10 µM was 0.141

Briefly, cytotoxicity at 10 µM measured for COCc1nc(C(=O)NS(=O)(=O)c2ccc(C)s2)cs1 : -4.61

The molecule CCNC(=O)NCc1cccc(N2CC=CC2)c1 showed cytotoxicity at 10 µM equal to 5.03

get_value(item= NC(=O)c1nc(COc2ccc3c(c2)OCO3)no1 , readout=cytotoxicity at 10 µM) returns 8.55

Summary for this molecule, O=C(COCC(=O)N(c1ccccc1)c1ccccc1)N1CCCC1 : cytotoxicity at 10 µM is 10.9

cytotoxicity at 10 µM reading for Cc1nc[nH]c1CN1CCN(C(=O)C2(C)CC2)[C@H]2CS(=O)(=O)C[C@H]21 : -4.76

For COc1cc(CNCCn2cc(C)cn2)c2c(c1)CC(C)O2 (stereo not drawn) the molecule record lists cytotoxicity at 10 µM as 19.1
